B1: WEE1 (parent)
chain: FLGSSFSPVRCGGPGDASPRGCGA

Variants of: B1
Assay: protein stability index of a GFP-peptide fusion (GPS, HEK-293T) (PSI 1-6); higher = more stable;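 note: lentivirally expressed fusions sorted by FACS into six bins by GFP to DsRed ratio, PSI derived from sequencing read proportions per bin multiplied by bin number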
Conditions: c terminus: a fixed tail appended
Tag: Y if measured protein stability index is not below 2, N if it is.

Record excerpt, results attached:
- variant-description: "G23Q"
  qualitative-label: "N"
- variant-description: "S5L"
  qualitative-label: "Y"
- variant-description: "P14H"
  qualitative-label: "N"
- variant-description: "R10T"
  qualitative-label: "Y"
- variant-description: "R20M"
  qualitative-label: "N"

Ask: Form field: protein stability index at least 2? Entry: `P14N`
Reply: N

Ask: And for `A17T` ?
Reply: N

Ask: And for `F1T` ?
Reply: Y

Ask: And for `S5F` ?
Reply: Y

Ask: And for `L2Y` ?
Reply: Y

Ask: And for `S4M` ?
Reply: Y

Ask: And for `F6D` ?
Reply: Y

Ask: And for `P19K` ?
Reply: N

Ask: And for `G12D` ?
Reply: N

Ask: And for `G12I` ?
Reply: N
